meta.source: paper PMC2800825

targetUnderTest: Asn111Asp mutant E. coli DHOD (Escherichia coli, UniProt P0A7E1, N111D)
protocolNotes: biochemical

{"molecule": "O=C(O)c1cc(=O)[nH]c(=O)[nH]1 [OA, orotate]", "targetUnderTest": "Asn111Asp mutant E. coli DHOD (Escherichia coli, UniProt P0A7E1, N111D)", "Kd": "> 75 mM"}

* * *

targetUnderTest: Asn172Ala mutant E. coli DHOD (Escherichia coli, UniProt P0A7E1, N172A)
protocolNotes: Reductive half-reaction with DHO, anaerobic stopped-flow
Format: biochemical
pKd: −log10 of the molar value.

{"compound": "O=C1C[C@@H](C(=O)O)NC(=O)N1 [DHO, dihydroorotate]", "pKd": 3.56}

* * *

targetUnderTest: Asn172Ala mutant E. coli DHOD (Escherichia coli, UniProt P0A7E1, N172A)
protocolNotes: biochemical
pKd: −log10 of the molar value.
endpoint: pKd

{"compound": "O=C(O)c1cc(=O)[nH]c(=O)[nH]1 [OA, orotate]", "targetUnderTest": "Asn172Ala mutant E. coli DHOD (Escherichia coli, UniProt P0A7E1, N172A)", "endpoint": "pKd", "assayValue": 3.66}

* * *

targetUnderTest: Asn177Ala mutant E. coli DHOD (Escherichia coli, UniProt P0A7E1, N177A)
protocolNotes: Reductive half-reaction with DHO, anaerobic stopped-flow
Assay type: biochemical

{"compound": "O=C1C[C@@H](C(=O)O)NC(=O)N1 [DHO, dihydroorotate]", "Kd": "22 µM"}

* * *

targetUnderTest: Thr247Ser mutant E. coli DHOD (Escherichia coli, UniProt P0A7E1, T247S)
Sequence (P0A7E1 1-336 T247S): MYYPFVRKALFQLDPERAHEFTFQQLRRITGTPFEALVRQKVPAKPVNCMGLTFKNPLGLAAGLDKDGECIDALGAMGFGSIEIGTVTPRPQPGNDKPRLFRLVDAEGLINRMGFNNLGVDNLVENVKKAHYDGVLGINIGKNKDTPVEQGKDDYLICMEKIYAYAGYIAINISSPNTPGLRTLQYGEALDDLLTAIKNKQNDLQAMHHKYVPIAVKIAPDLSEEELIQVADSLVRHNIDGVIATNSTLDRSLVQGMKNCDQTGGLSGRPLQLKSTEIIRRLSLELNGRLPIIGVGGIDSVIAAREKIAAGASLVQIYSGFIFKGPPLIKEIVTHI
protocolNotes: Reductive half-reaction with DHO, anaerobic stopped-flow
Type: biochemical
pKd: −log10 of the molar value.

{"compound": "O=C1C[C@@H](C(=O)O)NC(=O)N1 [DHO, dihydroorotate]", "pKd": 4.35}
